biological target: T1, Peptide-29 (cysteine pairing not given here; also: biotinylated, site not given here); experiment: ELISA, Fab on captured biotin-peptide
T1 peptide: SYLVCVKNVYCWTA
Where no end group is shown, it is not given here.

>  <Binder>
TBD-17 (HC S104A) (Fab, V domains shown, Fab; also called HC S104A mutant) VH: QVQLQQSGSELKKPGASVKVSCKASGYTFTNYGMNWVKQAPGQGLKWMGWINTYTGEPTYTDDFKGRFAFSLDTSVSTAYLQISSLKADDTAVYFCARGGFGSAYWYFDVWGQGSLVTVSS VL: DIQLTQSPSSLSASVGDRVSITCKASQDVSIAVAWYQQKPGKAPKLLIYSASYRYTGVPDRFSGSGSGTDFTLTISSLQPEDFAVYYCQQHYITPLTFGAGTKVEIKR

>  <EC50>
24.8 nM

$$$$
>  <Binder>
TBD-21 (HC F108A) (Fab, V domains shown, Fab; also called HC F108A mutant) VH: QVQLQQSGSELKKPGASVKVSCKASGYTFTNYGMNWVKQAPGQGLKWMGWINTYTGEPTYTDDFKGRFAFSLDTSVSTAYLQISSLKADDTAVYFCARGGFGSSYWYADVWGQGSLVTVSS VL: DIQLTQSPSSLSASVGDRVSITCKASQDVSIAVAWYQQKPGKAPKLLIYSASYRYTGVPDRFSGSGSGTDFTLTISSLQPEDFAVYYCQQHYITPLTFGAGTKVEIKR

>  <EC50>
23.4 nM

$$$$
>  <Binder>
TBD-6 (LC I93A) (Fab, V domains shown, Fab; also called LC I93A mutant) VH: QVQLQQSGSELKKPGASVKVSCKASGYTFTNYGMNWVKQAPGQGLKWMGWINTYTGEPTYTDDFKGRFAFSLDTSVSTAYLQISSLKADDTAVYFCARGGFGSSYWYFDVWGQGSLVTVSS VL: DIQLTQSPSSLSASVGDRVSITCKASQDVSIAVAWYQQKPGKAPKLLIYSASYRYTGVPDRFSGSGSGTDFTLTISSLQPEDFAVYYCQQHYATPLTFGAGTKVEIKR

>  <EC50>
43.8 nM

$$$$
>  <Binder>
TBD-1 wt (Fab, V domains shown, Fab; the heavy chain entry is VH-CH1; also called wild-type anti-TROP2 Fab (hRS7); TROP2 Fab) VH: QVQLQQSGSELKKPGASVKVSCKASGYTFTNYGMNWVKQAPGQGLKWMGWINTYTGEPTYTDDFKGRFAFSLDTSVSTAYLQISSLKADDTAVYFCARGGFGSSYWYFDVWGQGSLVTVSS VL: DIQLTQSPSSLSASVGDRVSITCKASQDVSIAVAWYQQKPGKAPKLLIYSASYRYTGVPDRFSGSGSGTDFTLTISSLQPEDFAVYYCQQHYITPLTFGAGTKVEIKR

>  <EC50>
6.7 nM

$$$$

Origin of the recorded values: patent US20230357429A1
